test: Phase I study: pharmacokinetic analysis; type: in vivo, human; details: human, plasma, oral, 900 mg, 900 mg BID; Day 1; read-out: AUC0-12 ± SD
Quantity Kind: AUC(0-t) (ng·h/mL)
Numbers only, in ng·h/mL.

According to the records, this compound CC(C)Nc1cc(-c2c[nH]c(C(=O)N[C@H](CO)c3cccc(Cl)c3)c2)c(Cl)cn1 displays AUC(0-t) of 10800

---

tested on: dose-escalated A375 cells; test: Proliferation assay (Alamar Blue, 96 h) in dose-escalated A375 cell lines; format: cell-based, human; settings: Homo sapiens, A-375, read-out: Relative IC50, Month 2; Dab-escalated line
Quantity Kind: IC50 (nM)
Numbers only, in nM.

According to the records, this compound CC(C)(C)c1nc(-c2cccc(NS(=O)(=O)c3c(F)cccc3F)c2F)c(-c2ccnc(N)n2)s1 [Dabrafenib] displays IC50 of 11.5
